// values below are reported growth
Tested on: SK-MEL-28 melanoma
procedure_summary: NCI-60 one-dose screen, 48 h (100 = growth as untreated, 0 = no growth, -100 = all killed)
condition_set: 10 µM unless noted
About 83,000 compounds went through this panel and 20% of them were active in at least one assay; those are over-represented in the sample as a whole.
Note: unit % is implicit; provide only the numeric part.

Recorded results for 5 molecules are shown here.
C=C(C)[C@H]1CC/C(C)=C/CC[C@]2(C)O[C@H]2CC/C(C=O)=C\C1O (stereo not given in full) : 115
Cc1c(C(N)=O)sc2c1c(=O)n(Cc1ccccc1)c1nnc(SCC(=O)Nc3ccc(Cl)cc3)n21 : 17.3
OC(c1cc(C(F)(F)F)nc2c(C(F)(F)F)cccc12)C1CCCCN1 (stereo not given) : 72.1
COC(=O)[C@]1(CCSC)N[C@H](c2cn(-c3ccccc3)nc2C)[C@@H]2C(=O)N(c3ccc(C)cc3)C(=O)[C@@H]21 : 109
CC(=O)Oc1c(C)c(OC(C)=O)c2c(c1C(C)=O)OC1CC(=O)C(C(C)=O)=C(O)C21C (stereo not given) : 119

Which value of growth has been reported for "COc1ccc(C(=O)Nc2nc(-c3ccc(Cl)cc3)cs2)cc1" in the records? 101

Same question for "Cc1cc(C(C)(C)C)cc(C)c1CC1=NCCN1" please. 116

Same question for O=C1C2C3C=CC(O3)C2C(=O)N1Nc1ccccc1 (stereo not given) please. 105

Same question for "Nc1ccc(C2=Nc3cccc4cccc(c34)S2)cc1" please. 111

Same question for "S=C(Nc1ccc(C2=NCCN2)cc1)Nc1ccc(C2=NCCN2)cc1" please. 110

====

// values below are reported growth
System: SK-OV-3 ovarian
procedure_summary: NCI-60 one-dose screen, 48 h (100 = growth as untreated, 0 = no growth, -100 = all killed)
condition_set: 10 µM unless noted
This is part of a sample that, as a whole, favours compounds with a hit. Of some 83,000 tested, about 20% had one in any assay.
Note: unit % is implicit; provide only the numeric part.

Recorded results for 6 molecules are shown here.
COC(=O)CCC1=C(C)/C(=C/c2[nH]c(-c3ccc[nH]3)cc2OC)N=C1C : 40
O=C(/C=C/c1ccc(O)c(O)c1)N1CCN(c2ccc(Cl)cc2)CC1 : 80.7
O=C(Nc1ccccc1Cl)c1cnc2ccc(C3CCNCC3)cn12 : 40.3
Cc1nn(-c2ccccc2)c2ncc3c(c12)C(=O)N(Cc1ccccc1)C3=O : 14.7
CCCCCCCCCCC[C@@H](C[C@H]1OC(=O)[C@H]1CCCCCC)OC(=O)[C@@H](CC(C)C)NC=O : 88.1
Nc1ccccc1-c1ccc([N+](=O)[O-])cc1 : 90.6

Which value of growth has been reported for CSc1nc2c(c(=O)n1C)C(c1ccccc1)C1=C(N2)/C(=C/c2ccccc2)CCC1 (stereo unspecified) in the records? 107

Same question for "Cc1cc(=O)n2n1-c1ccc(Cl)cc1NC(=O)C2" please. 109

Same question for "Clc1ncn[nH]1" please. 96.3

Same question for "CN(C)c1ccc2c(c1)/C(=N/O)c1ccccc1-2" please. 90.1

Same question for "COc1cc(OC)c2cc(C(=O)O)c(=O)oc2c1" please. 99.9

====

// values below are reported growth
Tested on: HCT-15 colon
procedure_summary: NCI-60 one-dose screen, 48 h (100 = growth as untreated, 0 = no growth, -100 = all killed)
condition_set: 10 µM unless noted
Compounds without any hit were thinned out: in the full panel of roughly 83,000, 20% have a hit.
Note: unit % is implicit; provide only the numeric part.

Recorded results for 8 compounds are shown here.
Cc1cc(O)c2c(c1)C[C@H]1[C@@H]3CC[C@H]4CC(=O)CC[C@]4(C)[C@H]3CC(=O)[C@]21C : 45.3
O=C1Nc2ccc(F)cc2/C1=C/c1nc(-c2ccc(F)cc2)n2ccccc12 : 105
O=C(Nc1ccc(Cl)cc1)Nc1ccc(Oc2nncc3ccccc23)cc1 : 2.76
C/C(=C\CCc1ccsc1)CC/C=C(\C)CCCN1CCC(CO)CC1 : 0.233
COc1ccc(C(=O)/C=C/c2c(Cl)nc3c(c(C)nn3-c3ccccc3)c2-c2ccc(Br)cc2)cc1 : 102
CN1CCN(Cc2ccc(NC(=O)c3[nH]ncc3Nc3ccnc4ccnn34)cc2)CC1 : 98
C[C@]12CC[C@@H]3c4ccc(O)c([N+](=O)[O-])c4CC[C@H]3[C@@H]1CC[C@@H]2NS(=O)(=O)c1ccc(C(F)(F)F)cc1 : 18
CN1C(=O)C(=Cc2cn(Cc3ccccc3)c3ccc(Br)cc23)C(=O)N(C)C1=O : 95.4

Lab note: next compound to report on.
Which value of growth has been reported for "O=C(Nc1ccc(Cl)cc1)c1cc2c(cc1O)[nH]c1ccccc12" in the records? 32

Attribution: PubChem BioAssay (NCI)
